molecular target: type A botulinum toxin light chain (BoNT/A-LC) (Clostridium botulinum, UniProt P0DPI1); test: biochemical; conditions: read-out: Inhibition rate %
Sequence (P0DPI1 2-448 limits assumed): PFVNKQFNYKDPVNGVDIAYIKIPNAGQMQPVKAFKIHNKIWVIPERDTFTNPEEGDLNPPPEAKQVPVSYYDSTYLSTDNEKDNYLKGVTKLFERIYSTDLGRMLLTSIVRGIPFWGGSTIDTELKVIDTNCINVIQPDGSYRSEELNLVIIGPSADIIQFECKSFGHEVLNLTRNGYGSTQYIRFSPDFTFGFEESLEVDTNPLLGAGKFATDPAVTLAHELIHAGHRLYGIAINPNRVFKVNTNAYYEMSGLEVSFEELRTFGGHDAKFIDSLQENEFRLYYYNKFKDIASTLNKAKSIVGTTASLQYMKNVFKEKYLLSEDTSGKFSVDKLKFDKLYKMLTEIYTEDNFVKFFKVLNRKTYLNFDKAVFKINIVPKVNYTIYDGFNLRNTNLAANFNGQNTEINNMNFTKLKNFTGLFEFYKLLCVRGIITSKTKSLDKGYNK
Given measured inhibition at 100 µg/mL, output TRUE if it is greater than or equal to 3% and FALSE if not.

# chemical-smiles, assigned-category
data = [
    ("O=C(CSc1ncccc1C(=O)O)Nc1cccc(OC(F)(F)F)c1", "FALSE"),
    ("O=C(CSc1ncccc1C(=O)O)Nc1ccccc1", "TRUE"),
    ("CCOc1ccc(Cl)cc1NC(=O)CSc1ncccc1C(=O)O", "TRUE"),
    ("COc1ccc(Cl)c(NC(=O)CSc2ncccc2C(=O)[O-])c1.[K+]", "TRUE"),
]

----------
Property: inhibition at 100 µg/mL; scope: individual molecules
biological target: type B botulinum toxin light chain (BoNT/B-LC) (Clostridium botulinum, UniProt P10844); experiment: biochemical; settings: read-out: Inhibition rate %
Sequence (P10844 2-441 limits assumed): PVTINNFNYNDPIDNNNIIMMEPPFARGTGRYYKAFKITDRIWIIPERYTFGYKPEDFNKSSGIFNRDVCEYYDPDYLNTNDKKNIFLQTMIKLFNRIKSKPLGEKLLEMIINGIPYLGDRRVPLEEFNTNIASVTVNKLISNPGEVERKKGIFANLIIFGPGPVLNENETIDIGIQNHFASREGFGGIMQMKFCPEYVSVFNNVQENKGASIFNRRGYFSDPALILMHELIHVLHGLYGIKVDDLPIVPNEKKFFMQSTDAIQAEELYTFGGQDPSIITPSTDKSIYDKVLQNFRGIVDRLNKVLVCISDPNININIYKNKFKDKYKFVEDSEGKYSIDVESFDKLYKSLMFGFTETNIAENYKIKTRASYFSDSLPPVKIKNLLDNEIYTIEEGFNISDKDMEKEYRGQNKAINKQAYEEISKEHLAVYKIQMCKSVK
metric: inhibition at 100 µg/mL (%)

# chemical-smiles, metric, obs-value
records = [
    ("O=C(CSc1ncccc1C(=O)[O-])Nc1ccccc1OC(F)(F)F.[K+]", "inhibition at 100 µg/mL", 29.3),
    ("O=C(CSc1ncccc1C(=O)[O-])Nc1cc(F)ccc1Cl.[K+]", "inhibition at 100 µg/mL", 30.2),
    ("COc1ccc(Cl)cc1NC(=O)CSc1ncccc1C(=O)O", "inhibition at 100 µg/mL", 20.5),
    ("COc1ccc(OC)c(NC(=O)CSc2ncccc2C(=O)O)c1", "inhibition at 100 µg/mL", 20.1),
    ("O=C(CSc1ncccc1C(=O)[O-])Nc1cc(Br)ccc1Br.[K+]", "inhibition at 100 µg/mL", 29.2),
    ("O=C(CSc1ncccc1C(=O)[O-])Nc1cc(OC(F)(F)F)ccc1Br.[K+]", "inhibition at 100 µg/mL", 30),
]

----------
This section presents compounds with their documented inhibition at 100 µg/mL values.
biological target: BoNT/F-LC (Clostridium botulinum, UniProt A7GBG3); experiment: biochemical; conditions: read-out: Inhibition rate %
Sequence (A7GBG3 1-436 limits assumed): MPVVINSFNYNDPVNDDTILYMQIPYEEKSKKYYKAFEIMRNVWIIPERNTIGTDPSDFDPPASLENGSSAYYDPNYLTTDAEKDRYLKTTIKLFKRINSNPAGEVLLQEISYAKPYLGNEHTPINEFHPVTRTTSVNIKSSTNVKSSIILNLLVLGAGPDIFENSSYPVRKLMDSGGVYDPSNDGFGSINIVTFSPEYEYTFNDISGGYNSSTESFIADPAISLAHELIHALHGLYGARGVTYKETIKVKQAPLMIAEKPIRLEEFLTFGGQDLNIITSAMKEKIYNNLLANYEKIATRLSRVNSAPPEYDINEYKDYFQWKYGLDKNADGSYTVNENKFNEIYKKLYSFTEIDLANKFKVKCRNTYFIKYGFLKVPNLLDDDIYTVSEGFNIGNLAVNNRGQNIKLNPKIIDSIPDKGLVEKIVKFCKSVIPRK

# chemical-smiles, inhibition at 100 µg/mL
data = [
    ("O=C(CSc1ncccc1C(=O)[O-])Nc1cc(F)ccc1Cl.[K+]", "16.2%"),
    ("O=C(CSc1ncccc1C(=O)O)Nc1cccc(OC(F)(F)F)c1", "3%"),
    ("CCOc1ccc(Cl)cc1NC(=O)CSc1ncccc1C(=O)O", "6.7%"),
]

----------
Each entry below lists one item and its recorded inhibition at 200 µg/mL value.
molecular target: tetanus toxin light chain (TeNt-LC) (Clostridium tetani); assay: biochemical; conditions: read-out: Inhibition rate %
Sequence (P04958 2-457 limits assumed): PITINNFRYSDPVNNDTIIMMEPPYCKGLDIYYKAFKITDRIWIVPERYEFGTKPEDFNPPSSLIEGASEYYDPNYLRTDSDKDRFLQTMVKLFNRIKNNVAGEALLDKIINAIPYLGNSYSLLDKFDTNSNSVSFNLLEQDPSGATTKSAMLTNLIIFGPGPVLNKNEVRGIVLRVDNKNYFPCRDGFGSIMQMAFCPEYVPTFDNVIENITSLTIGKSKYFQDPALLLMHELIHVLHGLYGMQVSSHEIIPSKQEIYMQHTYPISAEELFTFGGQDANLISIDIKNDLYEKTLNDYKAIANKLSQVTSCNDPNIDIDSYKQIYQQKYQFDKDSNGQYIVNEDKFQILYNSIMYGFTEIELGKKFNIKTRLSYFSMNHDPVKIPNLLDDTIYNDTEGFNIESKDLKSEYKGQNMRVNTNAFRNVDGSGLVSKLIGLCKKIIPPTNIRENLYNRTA
metric: inhibition at 200 µg/mL (%)

# chemical-smiles, study-system, obs-value
rows = [
    ("CCOc1ccccc1NC(=O)CSc1ncccc1C(=O)O", "tetanus toxin light chain (TeNt-LC) (Clostridium tetani)", 8),
    ("O=C(CSc1ncccc1C(=O)[O-])Nc1ccccc1Cl.[K+]", "tetanus toxin light chain (TeNt-LC) (Clostridium tetani)", 21.1),
    ("COc1ccc(Cl)c(NC(=O)CSc2ncccc2C(=O)[O-])c1.[K+]", "tetanus toxin light chain (TeNt-LC) (Clostridium tetani)", 12.3),
    ("COc1ccc(Cl)cc1NC(=O)CSc1ncccc1C(=O)O", "tetanus toxin light chain (TeNt-LC) (Clostridium tetani)", 12.3),
    ("O=C(CSc1ncccc1C(=O)O)Nc1cc(F)ccc1F", "tetanus toxin light chain (TeNt-LC) (Clostridium tetani)", 4.4),
    ("O=C(CSc1ncccc1C(=O)[O-])Nc1cc(F)ccc1Cl.[K+]", "tetanus toxin light chain (TeNt-LC) (Clostridium tetani)", 19.3),
    ("O=C(CSc1ncccc1C(=O)[O-])Nc1ccc(Br)cc1.[K+]", "tetanus toxin light chain (TeNt-LC) (Clostridium tetani)", 16.4),
    ("CCCOc1ccc(Cl)cc1NC(=O)CSc1ncccc1C(=O)O", "tetanus toxin light chain (TeNt-LC) (Clostridium tetani)", 20),
]
